This section presents molecules with their documented hERG IC20/TLR9 IC50 values.
Biological target: hERG channel (Homo sapiens)
Construct: expressed in transfected cells; host or cells: CHO (CHOhERG)
Sequence (Q12809 whole entry): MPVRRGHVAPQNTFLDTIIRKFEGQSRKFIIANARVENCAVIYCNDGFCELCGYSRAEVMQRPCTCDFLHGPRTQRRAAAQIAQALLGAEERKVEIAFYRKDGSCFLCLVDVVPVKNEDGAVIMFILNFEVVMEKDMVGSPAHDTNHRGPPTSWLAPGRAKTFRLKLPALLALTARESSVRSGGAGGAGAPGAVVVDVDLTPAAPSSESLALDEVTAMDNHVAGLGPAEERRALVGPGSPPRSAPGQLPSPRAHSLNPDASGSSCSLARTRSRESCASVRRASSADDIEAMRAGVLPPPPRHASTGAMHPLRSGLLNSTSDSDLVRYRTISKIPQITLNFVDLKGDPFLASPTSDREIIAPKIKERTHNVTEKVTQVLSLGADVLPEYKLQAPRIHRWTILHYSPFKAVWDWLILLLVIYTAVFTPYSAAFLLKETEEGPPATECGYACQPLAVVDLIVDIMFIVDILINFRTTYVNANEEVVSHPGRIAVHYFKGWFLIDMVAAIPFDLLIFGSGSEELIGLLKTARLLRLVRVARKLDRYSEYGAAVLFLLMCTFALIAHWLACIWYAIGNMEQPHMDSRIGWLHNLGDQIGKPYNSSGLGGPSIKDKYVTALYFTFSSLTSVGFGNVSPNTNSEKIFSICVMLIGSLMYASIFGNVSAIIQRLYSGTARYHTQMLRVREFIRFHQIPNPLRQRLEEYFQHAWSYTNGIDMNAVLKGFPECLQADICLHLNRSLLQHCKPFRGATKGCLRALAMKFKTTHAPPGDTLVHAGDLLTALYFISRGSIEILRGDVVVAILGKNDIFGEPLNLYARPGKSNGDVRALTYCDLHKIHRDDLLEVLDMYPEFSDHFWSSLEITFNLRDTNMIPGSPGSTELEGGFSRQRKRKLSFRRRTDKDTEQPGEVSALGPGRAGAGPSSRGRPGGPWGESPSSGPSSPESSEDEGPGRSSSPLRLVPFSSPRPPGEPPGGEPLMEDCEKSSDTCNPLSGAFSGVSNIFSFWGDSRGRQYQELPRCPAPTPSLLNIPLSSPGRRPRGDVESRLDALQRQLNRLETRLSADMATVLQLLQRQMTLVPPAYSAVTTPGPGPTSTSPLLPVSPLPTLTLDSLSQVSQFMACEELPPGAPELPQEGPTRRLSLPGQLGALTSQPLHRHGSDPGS
Experiment: hERG channel inhibition assay (patch-clamp, CHOhERG cells)
Assay type: cell-based
Settings: safety ratio, hERG IC20 over HEK/hTLR9 IC50

# Smiles notation, hERG IC20/TLR9 IC50
records = [
    ("C[C@H]1CN(c2ccnc3c2cnn3C)Cc2ccc(N3C[C@@H]4CNCCN4C3=O)cc21", ">34.4"),
    ("Cn1ncc2c(N3CCc4cc(N5CCNCC5)ccc4C3)ccnc21", ">54.1"),
    ("C[C@H]1CN(c2ccnc3c2cnn3C)Cc2ccc(N3CCNCC3)cc21", 32.3),
    ("Cc1cc(N2Cc3cnc(OCCN4CCNCC4)cc3[C@@H](C)C2)c2cnn(C)c2n1", ">69.4"),
]

---

Assay: Human microsome stability assay
Assay type: in vitro ADME
Settings: 1 μM test compound, 0.5 mg/mL liver microsomal protein, 37° C., pH 7.4

# Compound, Clearance of Human microsome [mL/min/kg]
measured = [
    ("C[C@H]1CN(c2ccnc3c2cnn3C)Cc2ccc(N3CCN(Cc4cn(C)cn4)CC3)cc21", 8.2),
    ("Cc1cc(N2Cc3ccc(N4CCNCC4)cc3[C@@H](C)C2)c2cnn(C)c2n1", 9.0),
    ("C[C@H]1CN(c2ccnc3c2cnn3C)Cc2ccc(N3CCN(C(=O)C4CCCN4)CC3)cc21 (stereo partly shown)", 7.0),
    ("Cc1cc(N2Cc3ccc(OC4CCNCC4)nc3[C@@H](C)C2)c2cnn(C)c2n1", 7.0),
]

---

Target: TLR9 (Homo sapiens)
Sequence (Q9NR96 26-1032): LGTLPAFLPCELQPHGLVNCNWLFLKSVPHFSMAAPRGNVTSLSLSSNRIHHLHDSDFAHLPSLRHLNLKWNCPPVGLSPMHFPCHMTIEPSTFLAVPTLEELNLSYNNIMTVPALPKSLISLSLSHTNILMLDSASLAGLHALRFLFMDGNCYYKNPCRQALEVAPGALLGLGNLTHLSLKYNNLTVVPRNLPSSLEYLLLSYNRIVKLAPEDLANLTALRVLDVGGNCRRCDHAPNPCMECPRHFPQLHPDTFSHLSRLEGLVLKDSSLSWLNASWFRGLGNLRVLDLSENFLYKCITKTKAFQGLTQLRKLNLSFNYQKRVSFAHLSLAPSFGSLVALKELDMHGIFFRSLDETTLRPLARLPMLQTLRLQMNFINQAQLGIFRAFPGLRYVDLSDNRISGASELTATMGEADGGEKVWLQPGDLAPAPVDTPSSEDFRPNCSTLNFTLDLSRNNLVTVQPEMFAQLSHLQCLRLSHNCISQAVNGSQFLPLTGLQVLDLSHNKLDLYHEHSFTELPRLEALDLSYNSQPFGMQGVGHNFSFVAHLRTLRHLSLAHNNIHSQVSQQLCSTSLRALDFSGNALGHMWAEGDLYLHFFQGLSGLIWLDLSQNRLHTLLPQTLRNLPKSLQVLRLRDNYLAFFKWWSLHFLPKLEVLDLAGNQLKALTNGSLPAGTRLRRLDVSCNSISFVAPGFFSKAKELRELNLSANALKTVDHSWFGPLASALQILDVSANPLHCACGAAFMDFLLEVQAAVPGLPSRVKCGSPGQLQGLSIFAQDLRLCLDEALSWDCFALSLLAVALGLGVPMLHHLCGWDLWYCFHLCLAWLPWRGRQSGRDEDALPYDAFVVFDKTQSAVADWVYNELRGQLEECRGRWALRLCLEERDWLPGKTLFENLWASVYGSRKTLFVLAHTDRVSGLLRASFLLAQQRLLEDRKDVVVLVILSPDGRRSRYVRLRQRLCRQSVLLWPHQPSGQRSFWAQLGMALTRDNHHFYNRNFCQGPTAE
Test: HEK293-Blue-hTLR-9 cells assay (SEAP reporter, ODN2006 stimulation)
Assay type: cell-based
Parameters: host or cells: HEK293 (HEK-Blue hTLR9)
Settings: HEK293-Blue-hTLR9 cells, ODN2006, 20 hrs; read-out: HEK/hTLR9 IC50
pIC50: −log10 of the molar value.
Measurement type: pIC50

# Compound, Measurement type, Assay result
rows = [
    ("C[C@H]1CN(c2ccnc3c2cnn3C)Cc2ccc(N3C[C@@H]4CCNC[C@@H]4C3=O)cc21 (single isomer, unassigned) [Example 57]", "pIC50", 6.65),
    ("CO[C@@H]1CN(C2CCN(c3ccc4c(c3)[C@@H](C)CN(c3ccnc5c3cnn5C)C4)CC2)C[C@H]1N [Example 11]", "pIC50", 7.20),
    ("CO[C@@H]1CN(c2ccc3c(n2)[C@@H](C)CN(c2cc(C)nc4c2cnn4C)C3)C[C@H]1N [Example 63]", "pIC50", 6.63),
    ("C[C@H]1CN(c2ccnc3c2cnn3C)Cc2ccc(N3CCN[C@H](CO)C3)cc21 [Example 51]", "pIC50", 6.44),
    ("C[C@H]1CN(c2ccnc3c2cnn3C)Cc2ccc(N3C[C@@]4(CCNC4)CC3=O)cc21 (single isomer, unassigned) [Example 53]", "pIC50", 6.68),
    ("C[C@H]1CN(c2ccnc3c2cnn3C)Cc2ccc(N3CCC(N4CCNCC4)CC3)cc21 [Example 10]", "pIC50", 7.24),
    ("C[C@H]1CN(c2ccnc3c2cnn3C)Cc2ccc(N3CCN(CCN(C)C)CC3)cc21 [Example 38]", "pIC50", 6.83),
    ("C[C@H]1CN(c2ccnc3c2cnn3C)Cc2ccc(N3CCN(Cc4cn(C)cn4)CC3)cc21 [Example 37]", "pIC50", 6.65),
    ("C[C@H]1CN(c2ccnc3c2cnn3C)Cc2ccc(N3CCC(O)(CN(C)C)CC3)cc21 [Example 13]", "pIC50", 6.40),
    ("C[C@H]1CN(c2ccnc3c2cnn3C)Cc2ccc(O[C@@H]3C[C@H]4CNCCN4C3)cc21 [Example 42]", "pIC50", 6.40),
]

---

Catalogue of compounds with associated IC20
Molecular target: hERG channel (Homo sapiens)
Construct: expressed in transfected cells; host or cells: CHO (CHOhERG)
Test: hERG channel inhibition assay (patch-clamp, CHOhERG cells)
Type: cell-based
Conditions: human, CHO cells stably expressing hERG (CHOhERG); CHOhERG cells, whole-cell patch-clamp

# Compound, IC20
records = [
    ("C[C@H]1CN(c2ccnc3c2cnn3C)Cc2ccc(OC3CN(C4CCNCC4)C3)cc21 [Example 41]", "5.1 µM"),
    ("Cn1ncc2c(N3CCc4cc(N5CCNCC5)ccc4C3)ccnc21 [Example 3]", "> 10 µM"),
    ("C[C@H]1CN(c2ccnc3c2cnn3C)Cc2ccc(N3CC4(CNC4)CC3=O)cc21 [Example 34]", "> 10 µM"),
    ("C[C@H]1CN(c2ccnc3c2cnn3C)Cc2ccc(OC[C@@H]3CNCCN3)cc21 [Example 19]", "6.3 µM"),
    ("C[C@H]1CN(c2ccnc3c2cnn3C)Cc2ccc(OC[C@@H]3CNCCN3C)cc21 [Example 44]", "> 10 µM"),
    ("Cc1cc(N2Cc3cnc(O[C@@H]4C[C@H]5CNCCN5C4)cc3[C@@H](C)C2)c2cnn(C)c2n1 [Example 76]", "> 10 µM"),
    ("Cc1cc(N2Cc3cnc(OCCN4CCNCC4)cc3[C@@H](C)C2)c2cnn(C)c2n1 [Example 77]", "> 10 µM"),
    ("CO[C@@H]1CN(c2ccc3c(c2)[C@@H](C)CN(c2ccnc4c2cnn4C)C3)C[C@H]1N [Example 20]", "6.2 µM"),
    ("C[C@H]1CN(c2ccnc3c2cnn3C)Cc2ccc(N3CC4(CNCCO4)C3)cc21 [Example 21]", "> 10 µM"),
]

---

Target: human TLR7 (Homo sapiens, UniProt Q9NYK1)
Sequence (Q9NYK1 27-1049): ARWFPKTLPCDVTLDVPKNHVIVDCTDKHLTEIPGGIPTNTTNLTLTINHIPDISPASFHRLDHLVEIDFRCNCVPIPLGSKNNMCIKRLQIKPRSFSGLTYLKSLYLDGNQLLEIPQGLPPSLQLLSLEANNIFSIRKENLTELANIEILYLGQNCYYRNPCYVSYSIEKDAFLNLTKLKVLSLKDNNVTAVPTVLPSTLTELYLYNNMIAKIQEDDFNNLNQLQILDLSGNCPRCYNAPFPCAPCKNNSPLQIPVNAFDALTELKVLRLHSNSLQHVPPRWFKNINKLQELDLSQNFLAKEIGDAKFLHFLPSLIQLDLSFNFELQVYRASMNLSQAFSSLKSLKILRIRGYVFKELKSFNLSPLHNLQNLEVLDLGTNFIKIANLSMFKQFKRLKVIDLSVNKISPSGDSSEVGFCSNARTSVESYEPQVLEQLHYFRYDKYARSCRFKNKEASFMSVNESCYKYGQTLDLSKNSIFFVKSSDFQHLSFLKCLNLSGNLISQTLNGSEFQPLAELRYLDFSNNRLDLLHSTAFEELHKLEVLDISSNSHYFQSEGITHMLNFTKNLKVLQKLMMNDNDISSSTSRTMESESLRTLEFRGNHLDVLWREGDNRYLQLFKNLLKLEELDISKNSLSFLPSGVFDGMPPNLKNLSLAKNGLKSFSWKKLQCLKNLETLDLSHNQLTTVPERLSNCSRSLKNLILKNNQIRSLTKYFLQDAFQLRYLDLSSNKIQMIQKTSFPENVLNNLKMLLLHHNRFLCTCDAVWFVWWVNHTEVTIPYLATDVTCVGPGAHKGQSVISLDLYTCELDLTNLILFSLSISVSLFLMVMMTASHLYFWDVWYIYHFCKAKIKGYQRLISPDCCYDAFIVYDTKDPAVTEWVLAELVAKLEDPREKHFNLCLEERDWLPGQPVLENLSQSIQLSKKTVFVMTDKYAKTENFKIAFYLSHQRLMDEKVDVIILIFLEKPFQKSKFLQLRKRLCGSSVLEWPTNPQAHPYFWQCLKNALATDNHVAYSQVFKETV
Test: HEK293-Blue-hTLR-7 cells assay (SEAP reporter, R848 stimulation)
Conditions: HEK293-Blue-hTLR7 cells, R848, 20 hrs; read-out: HEK/hTLR7 IC50
IC50 under 10 nM gets Condition met, anything at or over 10 nM gets Condition not met.

# Compound, Category
data = [
    ("C[C@H]1CN(c2ccnc3c2cnn3C)Cc2ccc(OC[C@@H]3CNCCN3C=O)cc21", "Condition not met"),
    ("Cc1cc(N2Cc3ccc(OC[C@@H]4CNCCN4)cc3[C@@H](C)C2)c2cnn(C)c2n1", "Condition not met"),
    ("C[C@H]1CN(c2ccnc3c2cnn3C)Cc2ccc(N3CC4(CCNC4)OC3=O)cc21 (stereo partly shown)", "Condition not met"),
    ("Cc1cc(N2Cc3ccc(N4CCOC5(CNC5)C4)nc3[C@@H](C)C2)c2cnn(C)c2n1", "Condition not met"),
    ("C[C@H]1CN(c2ccnc3c2cnn3C)Cc2ccc(N3CCC(O)(CN(C)C)CC3)cc21", "Condition met"),
    ("C[C@H]1CN(c2ccnc3c2cnn3C)Cc2ccc(N3C[C@@H]4CNCCN4C3=O)cc21", "Condition not met"),
    ("Cc1cc(N2Cc3cnc(N4CC[C@@H](N)[C@H](F)C4)cc3[C@@H](C)C2)c2cnn(C)c2n1", "Condition not met"),
    ("CO[C@H]1CN(c2cc3c(cn2)CN(c2cc(C)nc4c2cnn4C)C[C@@H]3C)CC[C@@H]1N", "Condition met"),
    ("C[C@H]1CN(c2ccnc3c2cnn3C)Cc2ccc(N3CCN(C(=O)C4CNCCO4)CC3)cc21 (stereo partly shown)", "Condition met"),
    ("CC1CN(c2ccnc3c2cnn3C)Cc2ccc(N3CCC4(CCNCC4)CC3)cc21 (stereo not shown)", "Condition met"),
    ("C[C@H]1CN(c2ccnc3c2cnn3C)Cc2ccc(N3CCN(S(=O)(=O)C4CCNC4)CC3)cc21 (stereo partly shown)", "Condition met"),
    ("C[C@H]1CN(c2ccnc3c2cnn3C)Cc2ccc(N3CC4(CCNCC4)CC3=O)cc21", "Condition met"),
    ("Cc1cc(N2Cc3ccc(N4C[C@@H](F)[C@@H](N)C4)nc3[C@@H](C)C2)c2cnn(C)c2n1", "Condition not met"),
    ("CO[C@@H]1CN(c2ccc3c(c2)[C@@H](C)CN(c2cc(C)nc4c2cnn4C)C3)C[C@H]1N", "Condition met"),
    ("C[C@H]1CN(c2ccnc3c2cnn3C)Cc2ccc(N3C[C@@H]4CCNCC4C3=O)cc21 (relative stereo)", "Condition met"),
    ("Cc1cc(N2Cc3ccc(N4CCC(C)(N)CC4)nc3[C@@H](C)C2)c2cnn(C)c2n1", "Condition met"),
    ("Cc1cc(N2Cc3cnc(N4CCNCC4)cc3[C@@H](C)C2)c2cnn(C)c2n1", "Condition met"),
    ("C[C@H]1CN(c2ccnc3c2cnn3C)Cc2ccc(N3CCC(N4CCNCC4)CC3)cc21", "Condition met"),
    ("Cc1cc(N2Cc3cnc(O[C@@H]4C[C@H]5CNCCN5C4)cc3[C@@H](C)C2)c2cnn(C)c2n1", "Condition not met"),
    ("C[C@H]1CN(c2ccnc3c2cnn3C)Cc2ccc(N3C[C@H]4CCNC[C@H]4C3=O)cc21 (single isomer, unassigned)", "Condition met"),
    ("C[C@H]1CN(c2ccnc3c2cnn3C)Cc2ccc(OCCN3CCNCC3)cc21", "Condition met"),
    ("C[C@H]1CN(c2ccnc3c2cnn3C)Cc2ccc(N3CCNCC3)cc21", "Condition met"),
    ("CO[C@@H]1CN(c2cc3c(cn2)CN(c2cc(C)nc4c2cnn4C)C[C@@H]3C)C[C@H]1N", "Condition not met"),
    ("CC1CN(c2ccc3c(c2)[C@@H](C)CN(c2ccnc4c2cnn4C)C3)CCN1 (stereo partly shown)", "Condition met"),
    ("C[C@H]1CN(c2ccnc3c2cnn3C)Cc2ccc(N3CC4(CNCCO4)C3)cc21", "Condition met"),
    ("C[C@H]1CN(c2ccnc3c2cnn3C)Cc2ccc(N3CCN(Cc4cn(C)cn4)CC3)cc21", "Condition not met"),
    ("C[C@H]1CN(c2ccnc3c2cnn3C)Cc2ccc(OC[C@H]3CNCCN3)cc21", "Condition met"),
    ("CO[C@@H]1CN(c2ccc3c(n2)[C@@H](C)CN(c2cc(C)nc4c2cnn4C)C3)C[C@H]1N", "Condition met"),
    ("C[C@H]1CN(c2ccnc3c2cnn3C)Cc2ccc(N3C4CCC3CNC4)cc21", "Condition met"),
    ("Cn1ncc2c(N3CCc4cc(N5CCNCC5)ccc4C3)ccnc21", "Condition not met"),
]
